# Test system: MS2 coat protein
# test.details: apparent KD of MS2 coat protein; designed switch direction (-1 OFF switch, 1 ON switch): 1; higher = weaker reporter binding
# test.context: Eterna round: R98; input ligand: none
outcome.measure: apparent KD of MS2 coat protein

Please look up its apparent KD of MS2 coat protein: GUGCACACUCGAGGAUAUCGGAGAUUUCUCCUUCGAGAAGGCGAUUCGUGCCGUGUUAUUCUGGACAUGAGGAUCACCCAUGUG [LRO026_SS NG 1 mod JR_SSNG1_Sub034]
110 nM

# repeat for AGAAUGACAUGAGGAUCACCCAUGUUGGGAAAACCCGUAACUCAGGAUAUGUACGCGAAAGACCGACAGAAGGGAGAUCUACAC [Amaes]
37.4 nM

# repeat for GUAGCAUACCGAGGAUAUUCAUAUAUGAAAAUAACAUGAGGAUCACCCAUGUGGCGAAAGCCUUGGGAGAAGGCGGAAUGCUAC [Xeinanis 75 22]
490 nM

# repeat for CUGCGAUUCUUAGGAUAUCGAGUGGAAUACACUCGAGAAGGAAGAAUAACCUGAGGAUCACCCAGGUAAUACUGAAGCAGAAUA [Same State NG1 - A3C, U17G Submission 9C]
32.7 nM

# repeat for UGAUCGCUUGGAGGAUAUCCAACUAUCAUAGUUGGAGAAGGCCAAGCUACAGAGCUAAGCUUGGAAGUCACUUCCGAUCAACAC [pwkr ssNG1 F9.4.3]
59.1 nM

# repeat for UAUAUAUGGUGAGGAUAUGCAAAGGAUCACCUUGUAGAAGGCAUCAGGGUAGAAGGUGCAAGGAUCACCUGUAAGGAUAUAUCC [pwkr2 ssNG1 DX.25]
1560 nM

* * *

Exercise: state measured apparent KD of K4 kissing-loop reporter for each of the sequences provided.
# Test system: K4 kissing-loop RNA reporter;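 also: bound reporter read as fluorescence of individual clusters on recovered sequencing chips by microscopy, with normalized cluster intensities fitted with a binding model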
# test.details: apparent KD of K4 kissing-loop reporter; higher = weaker reporter binding
# test.context: Eterna round: R107; input ligand: none
Provide the reading as a plain figure in nM.

Please look up its apparent KD of K4 kissing-loop reporter: GCCUAGCAGGGAAGGAGCGCCAUAUAAUUAAAAGGUAAUUAAUGAGUGAUGUUCAAAUAAUGGCAGGUAGGUCGCCCUGCUAGGC [KL-SSArg B10]
283

# repeat for GCAGUGAUGUUGCACGAGUAGGGUAGAGUGCGAGGACCGGUACGGCCGCCACUCGUAUGGAACUCGCUAAUUUAUGGAAUGGUGA [whbob_SS_tryp_A]
1020

# repeat for UGACUGGACUGAAGGAGCGUUGAAGGAGCGUAGGCAGUGAUGUUGCCUACAGGUAGGUCGCAGCAGGUAGGUCGCAGUCUAGUCU [ArgBS 27 #DoubleAptamer #SwitchBubble]
108

# repeat for UUAUCAUCAGCGGCCGCCACUGCAAAUUGGAGUGAUGUUCCAAGCGUGGAUAUUGAAAUUACUAGUAGGACCGGGUUGAUGAAUU [AK 2 Ex Trypt B]
158

# repeat for CUUAAGAUAUGAGUGAUGUUUAUGUCCGAAGGAGCGUGCGAAAGUACAGGUAGGUCGCGGAUGUGAGUGAUGUUCAUGUAAGCGA [KL-XArg-A13 #analogue]
114

# repeat for UUACUGAGUGAUGUUUGGAAAUAUCCUAGGCAGGAUAUGCGGAAACGCAGAAGGGCCACCUUCUAGUGAAGGAAACUUCGCUAUU [Ex FMN A 4]
423

# repeat for AUUAAUUUCAGAGGAUAUCGUGAUUUUAUUUAAUUUAUUCAUUUGUGCAGUGAUGUUGCUAAUAUUCGAGAAGGCUGAUUUAUAA [whbob_Ex_FMNB__2th224]
46.2

# repeat for `GCCGUACGCAUGGAUACCAGUCAAGAUCAGUGAUGUUGAUCUUUUAUAGAGCCUUCAUUAGACCCUUGGCAGCCAUGCGUACGGC`
391

# repeat for UGGACCUGACUCGAUAAGAGUCAAUGGGAUACCAGCCACGAAAGUGGCCCUUGGCAGCUCUACCAGUGAUGUUGGUCAAGGUCCU [#SwitchBubble 8 #StaticStem]
860

# repeat for AAACGCUGGAUGAAUAACAUCUAGCGAAUUCGAGGACCGGUACGGCCGCCACUCGAGCUAACUGCGAGUGAUGUUCGAUAAUAAA [Mat - Mod of OpenEnded 3 - D1]
441

# repeat for CCGACUGCAGGAAGGAGCGGCGGUUGGAGUGAUGUUCCAGGUAGUGAUGUUACCAAGAUCCGCCAGGUAGGUCGCCUGUUGCUCA [Same State Arginie B GF 12]
115

# repeat for UGAUACCAGACGGCCGCCACUCCCGUAAGUCAAAGACUUACGAAGAGGGUUUUUUAGUGAUGUUGGAGGACCGGGUCUGGUAUCU [FiskerMod 18 - Jieux - Exclusion - Tryptophan B]
618

# repeat for CAUAGUCACUGUGAUACCAGCCCGACUCUUGGCGUCUGCGGUCAAAGCCCAGUGAUGUUGGGCCCUUGGCAGCAUGGCGGCAACA [Xelexebi]
132

# repeat for CCGUCGACAAGCGCCAUCGUCUACGUCAAUAAGGAUAUCAUCAAGGUGAGAAGGUAUGACAACCGGAGUGAUGUUCCAGGGCGAA [theeternabot_sameState_KL_FMN_A_5]
368

# repeat for UUUUUCGCGUUUGAUACCAGCAGAGUUGUUCGUGUCUGGAGCGUGAGUGAUGUUCAUGUCUGCCCUUGGCAGCAAACGGGAGAAG [KL-XTheo-B14]
123

# repeat for CGCAGUGAUGUUGCGAGUAGCUACAGGGAAGGAGCGUGCUAGAGCACAGGUAGGUCGCCCAGUGGCAGUGAUGUUGCCAACGGGU [Exclusion ARginine A GF 18]
110

# repeat for AAGGGCUAGGCGGCCGCCACUGGUCGUGUACACAUACGAGCCAGUGAUGUUGGUAUUGUGUGCGGCAGGACCGGGCCUAGCCGAA [Exclusion - Tryptophan B (Freestyle 25)]
304

# repeat for AAGGCCACGAGAAGGAGCGUGCUAUGGAGUGAUGUUCCAGUGUAGACCUAAGGUCUACACGCACAGGUAGGUCGCUCGUGGUCAA [Omei KL Arginine B SS A v1]
203

# repeat for AGUACAAUGGCGGCCGCCACUCAAUGGCAGAUCAAAGAUCUGUAUCACUCAGUGAUGUUGAGUGAGAGGACCGGGCCUUUGUACA [Omei KL Tryp B SS B v9]
500

# repeat for UGUAUGUGUCAGCGAGUGAUGUUCGACGAUACCAGACUCGAUAGAGUCCCUUGGCAGCGUAAUGCAUGCCAACUGGCACAUACUA [#SwitchBubble 12 #K4Early]
837

# repeat for AAACGUCGGAAGUGAUGUUGAUGACGUAGUAAGGAUAUUGGACGCGCAAGAAGGUACUGGCAAACUAAGGACAUCCUGGAUAUUC [theeternabot_exclusion_KL_FMN_A_47]
232

# repeat for AAGGUAUCUAGAUGCUAGCAACAACUAGAUACCAGCAUCGAAAGAUGCCCUUGGCAGCUAGCAGUGAUGUUGCUAGCAAUAAGAA [Design4]
131

# repeat for AUGUACACGAUAGUGUACUCCUAGUGAUGUUAGGAUAUGCAGAUAUGCAGAAGGAACAAGUCAUCUGACAAUAGUCGGAUGACAA [FmnAX 9 #OpenEnded #K4Early]
119

* * *

# Test system: MS2 coat protein
# test.details: apparent KD of MS2 coat protein; higher = weaker reporter binding
# test.context: Eterna round: R107; input ligand: tryptophan 2.4 mM
Exercise: state measured apparent KD of MS2 coat protein for each of the sequences provided.
Provide the reading as a plain figure in nM.

Please look up its apparent KD of MS2 coat protein: UGACAUUGCUCAGAUACCAGACAUGAGGAUCACCCAUGUGCCAAAUACGUACAAAUAAAUGUCCCUUGGCAGCUGAGCAAUGUCU [TheoBX 12 #MS2Left #Theo2]
14.4

# repeat for UUUUUCAUAGGUUAUAGUUUAGAAACUGAAGGAGCGUGGUAAUACACAGGUAGGUCGCAGAUUUUACAUGAGGAUCACCCAUGUU [JR_ExcArginiA_Sub014]
25.6

# repeat for UUGGGUUUGCGAAGGAGCGGGAAAUAUAUAUAUAUAAUCCUAACAUGAGGAUCACCCAUGUCCCAGGUAGGUCGCGCAGGUUUGG [12.L]
58.7

# repeat for AAGGUGAUCCGUGAUACCAGCUCAACAUGAGGAUCACCCAUGUAAGCCUGGAAACAGGCGAGCCCUUGGCAGCACGGUUGCCAAG [(M)'-(Theo1)-(Ms2)-(Theo2)-(M'')-(T2)'_Design1]
163

# repeat for CAAAAUUACGGAAGGAGCGCGGGUAGGCGGGUUGGAUCACAUGAGGAUCACCCAUGUAAAUCGCAGGUAGGUCGCCGUAAACGCG [Eslagele]
36

# repeat for CCCAGUUAUAUCAAAGGAAUUAUACUCGAAGGAGCGUCAUAGUAGGCAGGUAGGUCGCGAGACAUGAGGAUCACCCAUGUAGAGA [pxpmullin]
30.4

Data provenance is the supplement of paper PMC9170038.
